Reference source for all entries: patent US20230021448A1

# EC50 annotations
molecular target: STING (Homo sapiens, UniProt Q86WV6, G230A/H232R/R293Q/R71H); assay: STING reporter assay: luciferase reporter activity in THP1-Dual KO-IFNAR2 cells stimulated with 2'3'cGAMP; details: 2′3′cGAMP 15 μM final, 24h, read-out: hSTING: EC50
Sequence (Q86WV6 whole entry R71H/G230A/H232R/R293Q): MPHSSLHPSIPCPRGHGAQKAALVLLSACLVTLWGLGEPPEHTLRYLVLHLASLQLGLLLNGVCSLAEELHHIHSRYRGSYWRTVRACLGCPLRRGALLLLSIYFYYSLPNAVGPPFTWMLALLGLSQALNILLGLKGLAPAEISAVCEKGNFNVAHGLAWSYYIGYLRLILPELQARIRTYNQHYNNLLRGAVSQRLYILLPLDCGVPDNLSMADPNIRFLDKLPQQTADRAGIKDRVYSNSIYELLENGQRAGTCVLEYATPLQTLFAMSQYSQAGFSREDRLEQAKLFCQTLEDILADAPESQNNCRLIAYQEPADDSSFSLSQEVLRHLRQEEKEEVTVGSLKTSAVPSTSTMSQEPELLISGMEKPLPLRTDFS

# STRUCTURE_NOTATION, SYSTEM_TESTED, EC50
measured = [
    ("CC(C)(NC(=O)C(=O)Nc1c[nH]c2cc(F)c(F)cc12)c1ccc(C(F)(F)F)cc1", "STING (Homo sapiens, UniProt Q86WV6, G230A/H232R/R293Q/R71H)", "200 to 1000 nM"),
]

Fill in the blank: the reported EC50 of `CC(C)(CO)CCCN1CCN(C(=O)C(=O)Nc2c[nH]c3cc(F)c(F)cc23)CC1` is ____. 5000 to 100000 nM

Same for `Cc1cc(F)c(Cl)cc1NC(=O)C(=O)Nc1c[nH]c2cc(F)c(F)cc12` 200 to 1000 nM

Same for `Cc1ccc(CNC(=O)C(=O)Nc2c[nH]c3ccc(-c4cnn(CC(F)(F)F)c4)cc23)cc1OC(F)(F)F` 40 to 200 nM

Same for `O=C(Nc1c[nH]c2cc(F)c(F)cc12)C(=O)N[C@H]1CC[C@@H](Oc2ccc(C(F)(F)F)nc2)CC1` 200 to 1000 nM

Same for `Cc1ccc(OCCNC(=O)C(=O)Nc2c[nH]c3cc(F)c(F)cc23)cc1C` 200 to 1000 nM

Same for `CN(C(=O)CNC(=O)C(=O)Nc1c[nH]c2cc(F)c(F)cc12)c1ccccc1` 1000 to 5000 nM

Same for `O=C(Nc1c[nH]c2cc(F)c(F)cc12)C(=O)NC1CCC2(CCCC2)CC1` 200 to 1000 nM
